tested on: MS2 coat protein; experiment: apparent KD of MS2 coat protein; designed switch direction (-1 OFF switch, 1 ON switch): -1; higher = weaker reporter binding; settings: input ligand: none
In this scheme, each record receives a class according to its apparent KD of MS2 coat protein; the ranges are low bin: < 20 nM; mid bin: ≥ 20 nM and < 40 nM; high bin: ≥ 40 nM

Solved cases (4 shown):
sequence	classification
UAUAUGUCAGGAUAUUAGUAGUAAAUGAAUAAAAUUAUUACUGAGAAGGGACAUGAGGAUCACCCAUGUGCCUC [Mat - Exclusion 4 - Eli Mod - D24] (Eterna round: R97, puzzle: Exclusion 4)	mid bin
UAGCAUUGCCUUUGGUAGUGCUAUACAUGAGGAUCACCCAUGUAGGAUAUGGUCGGCUUUGCUGACCAGAAGGACAUGUGUAUU [MOD2 ENG3 1.04 by JL] (Eterna round: R96, puzzle: Exclusion NG 3)	high bin
GUCAACGCAGGAUAUUAGAACUUUUACAUGAGGAUCACCCAUGUUAAUUGGGUCUAAGAAUAAGAAGGGCGAUGAA [JR_Ex5_Sub011] (Eterna round: R97, puzzle: Exclusion 5)	low bin
GGCGAAGUAGGAUAUACAUGAGGAUCACCCAUGUAACCUGAUGGCGUAGGUCUUCUAUGUAGAAGGGCUGCGCC [jl-ex3-4.38 ViennaUCT mod] (Eterna round: R97, puzzle: Exclusion 3)	low bin

In the following, a different sequence is considered.
Hi, small favor: classify GUGCCGCGAGGAUAUACAGACGGGUCCAUUACGUGUCUCGGACUUGAGGAUCACCCAAGUAGAAGGCGUCUCGG [salish99_ex2_r4_627] (Eterna round: R97, puzzle: Exclusion 2) by its apparent KD of MS2 coat protein when you get a moment.
mid bin

* * *

Item-by-item account of apparent KD of MS2 coat protein
test system: MS2 coat protein; test: apparent KD of MS2 coat protein; designed switch direction (-1 OFF switch, 1 ON switch): -1; higher = weaker reporter binding; conditions: input ligand: FMN 200 uM
The figure you give is taken to be in nM; do not add the unit.

Previously resolved entries follow.
sequence	system_tested	unit	apparent KD of MS2 coat protein
AUUGUUUAUGUAGGAUAUGCCUGGCGUGCCUUUGCAGAAGGACAUGAGGAUCACCCAUGUAUUGCGGUCUGCGUUCAGAUCGCU [salish99_ExNG1_r4_033] (Eterna round: R96, puzzle: Exclusion NG 1)	MS2 coat protein	nM	44.4
ACUUAUUGAGGAUAUACAGAUUAUUACAUGAGGAUCACCCAUGUUCUUCAAUGUAUAUAUGUAGAAGGCAGAAGUA [Mat - Exclusion 5 - JL Mod - D14] (Eterna round: R97, puzzle: Exclusion 5)	MS2 coat protein	nM	317
AUUUUGUGAGGAUAUUAGUUGUAGAAAAUUGUUAGUAUAGCUGAGAAGGCACAUGAGGAUCACCCAUGUACAAC [JR_Ex4_Sub040] (Eterna round: R97, puzzle: Exclusion 4)	MS2 coat protein	nM	31.1

Value lookup for apparent KD of MS2 coat protein; key = CUAUUCCGAGGAUAUACAUGAGGAUCACCCAUGUCGGGCCUCUGCGUUUAGCGCGAAAGUAGAAGGUGGGUUUC [JL Riri mod 9] (Eterna round: R96, puzzle: Exclusion 3)
35.5

Now the sequence GGUCAGACGGUAGGAUAUCCAUAUCGAGUGACCCUUUCAUAACAUGAGGAUCACCCAUGUCGGUGGGAGAAGGGCCGUACGGCG [salish99_ExNG02_R04_001] (Eterna round: R96, puzzle: Exclusion NG 2)
146

# iterate: UAUCGGGACUGAGGAUAUUCGUUCGAACGCGAAGAAGAAGGUAGUGUCAGGGACAUGAGGAUCACCCAUGUGAUUUCAGUCCCA [JL ViennaUCT Erinle mod 5] (Eterna round: R96, puzzle: Exclusion NG 1)
98.2

Query UGCUGACGAGGAUAUACAUGAGGAUCACCCAUGUUGGUCAAGCGACGAUAGUCGCAAUGUAGAAGGCGUCAGCA [E3/8-A2] (Eterna round: R97, puzzle: Exclusion 3) next
239

And the next one, CAACCUCACGAGGAUAUCAAUGCUAGUUGGCGUUGAGAAGGCGUAACAUGAGGAUCACCCAUGUGGUGGCGUAU [Eternabot (Original) Solution 26] (Eterna round: R97, puzzle: Exclusion 6) ?
1020

Lookup GCCGUACAUGAGGAUCACCCAUGUCAGGAUAUUUAGCACUCGGAGUUCCCGAGAGGUCAAAGAAGGGACAUUGC [EX1 C.17] (Eterna round: R97, puzzle: Exclusion 1)
21.6
